assay: NCI Yeast Anticancer Drug Screen. Data for the bub3 strain (AID 167); details: S. cerevisiae bub3 mutant strain, at 50.0 µM, hits give high values
About 79,000 compounds went through this panel and 15% of them were active in at least one assay; those are over-represented in the sample as a whole.
experimental.endpoint: growth inhibition (%)

compound: c1ccc(-c2cc(-c3ccccc3)c3ccc4c(-c5ccccc5)cc(-c5ccccc5)c5ccc2c3c54)cc1
measurement.units: %
measured.result: -18.9
//
compound: CCCCCOC(c1cc2c(cc1Br)OCO2)C(C)Br (configuration not stated)
measurement.units: %
measured.result: 22.8
//
compound: CN(CCc1ccccn1)/[N+]([O-])=N/O (tested in a mixture with another compound)
measurement.units: %
measured.result: -3.35
//
compound: CCN(CC)CCC1(C#N)Cc2ccccc2N(CC)c2ccccc21 (configuration not stated)
measurement.units: %
measured.result: 7.3
//
compound: CCCCCC(C#N)CCC(C)=O (configuration not stated)
measurement.units: %
measured.result: -0.95
//
compound: O=S(=O)(O)CCCO
measurement.units: %
measured.result: -0.45
//
compound: CCOC(=O)c1cc2c(OC)cc(OC)cc2oc1=O
measurement.units: %
measured.result: 28.9
//
compound: CCOC(=O)C(C(=O)OCC)c1cnc2ccccc2c1Cl
measurement.units: %
measured.result: -4.5
//
compound: CCOC(=O)C[C@](C)(O)C1CCCN1 (some centres not stated)
measurement.units: %
measured.result: -3
//
compound: CC[C@@]1(OC(=O)CN2CCNCC2)C(=O)OCc2c1cc1n(c2=O)Cc2cc3ccccc3nc2-1
measurement.units: %
measured.result: 26.1
//
compound: O=C1CCC(=O)N2CCCCN12
measurement.units: %
measured.result: 22.5
//
compound: CN(C)CCO[Si](C)(c1ccccc1)c1ccc(F)cc1 (configuration not stated)
measurement.units: %
measured.result: 11.8
//
compound: CN(C)CCN1C(=O)CC[C@@]2(C)C1=CC[C@@H]1[C@@H]2CC[C@@]2(C)[C@H]1CC[C@]2(C)O
measurement.units: %
measured.result: -0.1
//
compound: CC(C)NC1(N(C)C)N=C(N(C)C)N=C(N(C)C)O1 (configuration not stated)
measurement.units: %
measured.result: 9.5
//
compound: CC(COc1cc(Cl)c(Cl)cc1Cl)OC(=O)COc1ccc(Cl)cc1Cl (configuration not stated)
measurement.units: %
measured.result: 2.9
//
compound: [O-][n+]1ccc(Cl)cc1
measurement.units: %
measured.result: -10.1
//
compound: Cc1ccc(/C=C2/NC(=S)SC2=O)cc1
measurement.units: %
measured.result: 1.75
//
compound: O=C(O)C(c1cccs1)C1(O)CCCCC1 (configuration not stated)
measurement.units: %
measured.result: -2.5
//
compound: COC(=O)C(CC(=O)Nc1ccc(C)cc1)C(=O)C(=O)Nc1c(C(C)C)cccc1C(C)C (configuration not stated)
measurement.units: %
measured.result: -9.9
//
compound: CC(=O)O/C(C)=C/C(C)C
measurement.units: %
measured.result: 2.1
//
compound: O=C(O)c1cc(-c2ccccc2Cl)nc2cc3ccccc3cc12
measurement.units: %
measured.result: -6.05
//
compound: C[N+]1(C)N=C([O-])N(CCCCCCN2C(=O)[N+](C)(C)N=C2[O-])C1=O
measurement.units: %
measured.result: 8.65
//
compound: S=C([S-])[P+](C1CCCCC1)(C1CCCCC1)C1CCCCC1
measurement.units: %
measured.result: -39.1
//
compound: COC1=C(NCC(C)C)C(=O)C(OC)=C(NCC(C)C)C1=O
measurement.units: %
measured.result: 3.25
//
compound: O=C(O)CSc1ncccc1[N+](=O)[O-]
measurement.units: %
measured.result: -32.6
//
compound: NC1=C(O)C(=O)C(c2ccc(C3OC(N)=C(O)C3=O)cc2)O1 (configuration not stated)
measurement.units: %
measured.result: -27.6
//
compound: CC1CCC2CCCCC2/C1=N\NC(N)=O (configuration not stated)
measurement.units: %
measured.result: 0.25
//
compound: O=C(NCCCCCCNC(=O)OCOC(=O)NCCCCCCNC(=O)Nc1ccc(SCCO)cc1)Nc1ccc(SCCO)cc1
measurement.units: %
measured.result: 27.2
//
compound: Cn1c(=O)n(C2OC(CO)C(O)C2O)c2ncnc(N)c21 (configuration not stated)
measurement.units: %
measured.result: -2.9
//
compound: N=c1ncn(Cc2ccccc2)c2nc[nH]c12
measurement.units: %
measured.result: 10
//
compound: Cc1cc(=O)[nH]c2c(C)cc(Cl)cc12
measurement.units: %
measured.result: -18.4
//
compound: CC1(C)Oc2ccc3c(=O)cc(-c4ccccc4)oc3c2C1C(=O)O (configuration not stated)
measurement.units: %
measured.result: 9.7
//
compound: FC(F)(F)c1cc(NC(=S)SCc2ccc(Cl)cc2)ccc1Cl
measurement.units: %
measured.result: 13.6
//
compound: Cc1cccc(NC(=O)c2cccc(C(=O)Nc3cccc(C)c3C)c2)c1C
measurement.units: %
measured.result: 5.2
//
compound: NC(=O)C1CCCNC1 (configuration not stated)
measurement.units: %
measured.result: 15.6
//
compound: CN1CCN(C2CCCc3ccccc3C2=O)CC1 (configuration not stated)
measurement.units: %
measured.result: -15.5
//
compound: c1ccc(-c2ccccc2N=C2N=NN=N2)cc1
measurement.units: %
measured.result: -13.6
//
compound: Cc1c(CCNC(=O)C(F)(F)F)ccc2c1[nH]c1ccccc12
measurement.units: %
measured.result: -2.4
//
compound: CC(C)[Si](OC1=C(c2ccccc2)C(NC(=O)/C=C/c2ccc([N+](=O)[O-])cc2)CCC1)(C(C)C)C(C)C (configuration not stated)
measurement.units: %
measured.result: -5.35
//
compound: C1=C(CN2CCCCC2)Oc2ccccc2O1
measurement.units: %
measured.result: 21.3
//
compound: COCCN(CCOC)C1C2=C(CCCC2)OS(=O)(=O)C1c1ccccc1 (configuration not stated)
measurement.units: %
measured.result: 3.2
//
compound: N=c1c2ncn(C3OC(COP(=O)(O)O)C(O)C3O)c2ncn1O (configuration not stated)
measurement.units: %
measured.result: -9.6
//
compound: OCCN(CCO)CCCNc1ccnc2cc(Cl)ccc12
measurement.units: %
measured.result: -12.8
//
compound: O=C(Nc1cc(Cl)ccc1Cl)Oc1ccc(Cl)cc1C(=O)c1ccccc1
measurement.units: %
measured.result: -35.4
//
compound: Cn1c(=O)c2[nH]c(CSc3ccccc3)nc2n(C)c1=O
measurement.units: %
measured.result: 21.8
//
compound: COc1c(O)c2c(=O)cc3c4c5c(cc(=O)c6c(O)c(OC)c(CC(C)O)c(c(c1CC(C)O)c24)c65)OCO3 (configuration not stated)
measurement.units: %
measured.result: 5.55
//
compound: CCN(CC)CCN(CC)CCN(CC)CC
measurement.units: %
measured.result: 4.1

---

Experiment: NCI Yeast Anticancer Drug Screen. Data for the mlh1 rad18 strain (AID 175)
Conditions: S. cerevisiae mlh1 rad18 strain growth inhibition; at 50.0 µM; hits give high values
Protocol: Growth inhibition of yeast strains with defined genetic alterations is measured as a screen for potential anti-cancer activity. Selected strains with alterations in DNA damage repair or cell cycle control were exposed to compounds and growth inhibition was measured relative to vehicle treated controls. The strain used in this assay is mlh1 rad18
About 79,000 compounds went through this panel and 15% of them were active in at least one assay; those are over-represented in the sample as a whole.

compound.structure.string: CCOC(=O)c1[nH]n(-c2ccccc2)c(=O)c1/C=N/C(=S)NCCc1ccc(OC)c(OC)c1
growth inhibition (%): 13.2
//
compound.structure.string: CCSc1ccc2c3c(cccc13)C(=O)N(CCc1ccccn1)C2=O
growth inhibition (%): 2.8
//
compound.structure.string: Nc1n[nH]c(=S)n1Cc1ccccc1
growth inhibition (%): -10.7
//
compound.structure.string: [Cl][Mn][Cl]
growth inhibition (%): -0.15
//
compound.structure.string: CCOC(=O)C(NC(=O)NC(C(=O)OCC)C(=O)OCC)C(=O)OCC
growth inhibition (%): -17.6
//
compound.structure.string: Cc1nc(N)[nH]c(=O)c1CCCN=Cc1ccc([N+](=O)[O-])cc1
growth inhibition (%): 29.9

---

test: NCI Yeast Anticancer Drug Screen. Data for the sgs1 mgt1 strain (AID 161);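 also: 0% = growth of cultures given vehicle only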; conditions: S. cerevisiae sgs1 mgt1 strain, at 50.0 µM, hits give high values
This is part of a sample that, as a whole, favours compounds with a hit. Of some 79,000 tested, about 15% had one in any assay.
// reported growth inhibition per item
experimental.endpoint: growth inhibition (%)

molecule: c1ccc(CN2CCC(N3CCCC3)CC2)cc1
experimental.endpoint: growth inhibition
measured.result: -22
--
molecule: CNCc1ccccc1
experimental.endpoint: growth inhibition
measured.result: -21
--
molecule: Cc1nc(=O)n2c(c1C(=O)Nc1ccc(Cl)cc1)NCC2
experimental.endpoint: growth inhibition
measured.result: 0.1
--
molecule: CC[CH2][Sn]([CH2]CC)([O]C(=O)c1cccnc1SC)[O][Sn]([CH2]CC)([CH2]CC)[O]C(=O)c1cccnc1SC
experimental.endpoint: growth inhibition
measured.result: 90.8
--
molecule: COc1ccc(CSc2n[nH]c(=O)[nH]c2=S)cc1
experimental.endpoint: growth inhibition
measured.result: -10.4
--
molecule: CN(C)CCNC(=O)c1cccc2c(Nc3ccc(S(=O)(=O)N=C(N)N)cc3)c3ccccc3nc12
experimental.endpoint: growth inhibition
measured.result: -37
--
molecule: CC1(CCl)C(=O)C=Cc2ccccc21 (centres undefined)
experimental.endpoint: growth inhibition
measured.result: -5.1
--
molecule: Cc1ccc(N=Nc2c(O)c3ccccc3[nH]c2=O)c(S(=O)(=O)N(C)C)c1
experimental.endpoint: growth inhibition
measured.result: -24.9
--
molecule: CCOC(=O)/C(C#N)=C/c1ccc(O)c(OC)c1
experimental.endpoint: growth inhibition
measured.result: 4.95
--
molecule: O=C1Nc2cc([N+](=O)[O-])c(Br)cc2C1=O
experimental.endpoint: growth inhibition
measured.result: 0.7
--
molecule: O=C(N/N=C\c1ccc(Cl)cc1Cl)C1CC1
experimental.endpoint: growth inhibition
measured.result: -7.6
--
molecule: [O-][n+]1ccc(Cl)cc1
experimental.endpoint: growth inhibition
measured.result: -19
--
molecule: Cc1cc(C)nc(NS(=O)(=O)c2ccc(Nc3c4ccccc4nc4c(C(=O)Nc5ccc(S(=O)(=O)Nc6cc(C)on6)cc5)cccc34)cc2)n1
experimental.endpoint: growth inhibition
measured.result: 32.2
--
molecule: CC(=O)OCCOCCN1CCN(c2c(O)c3c(c(O)c2Cl)C(=O)C=CC3=O)CC1
experimental.endpoint: growth inhibition
measured.result: 90.8
--
molecule: C1CCC2(CC1)CCCN2
experimental.endpoint: growth inhibition
measured.result: 1.4
--
molecule: NC(=O)N/N=C1\CC2CC1C1CCCC21 (centres undefined)
experimental.endpoint: growth inhibition
measured.result: -1.75
--
molecule: O=[N+]([O-])c1cc(C=NCCCCCCN=Cc2ccc(Cl)c([N+](=O)[O-])c2)ccc1Cl
experimental.endpoint: growth inhibition
measured.result: -9.75
--
molecule: COc1cc(OC)c(-c2cc(C(=O)O)c3cc4ccccc4cc3n2)c(OC)c1
experimental.endpoint: growth inhibition
measured.result: 24.1
--
molecule: CC1(C)OC2OC(C3COS(=O)O3)C(Cl)C2O1 (centres undefined)
experimental.endpoint: growth inhibition
measured.result: -1.4
--
molecule: Cc1ccc(OC(=O)c2cccs2)cc1
experimental.endpoint: growth inhibition
measured.result: -11.9
--
molecule: CN=NNc1ccc(C(=O)NC(C)C)cc1
experimental.endpoint: growth inhibition
measured.result: -8.2
--
molecule: COC(=O)c1ccc(C=O)[nH]1
experimental.endpoint: growth inhibition
measured.result: 0.55
--
molecule: COC(=O)c1cc(NC(=O)Nc2ccc(Cl)cc2[N+](=O)[O-])cc(C(=O)OC)c1
experimental.endpoint: growth inhibition
measured.result: -14.1
--
molecule: CC1CC(C#N)=C2NCCCCN2C1=O (centres undefined)
experimental.endpoint: growth inhibition
measured.result: -2.25
